Source: PubChem BioAssay AID365

# Test Target: Ribonuclease HI (Escherichia coli (strain K12))
# Test Summary: E. coli RNase HI inhibitors, dose response, biochemical, FRET RNA/DNA duplex cleavage (AID 365)
# Condition Context: E. coli RNase H, FRET RNA/DNA cleavage fluorescence
Calls of active or inactive are those of the source. The rule behind the calls is not given here.
Value Type: IC50

Example compounds with recorded IC50:
[
  {
    "Compound": "Cc1sc(NC(=O)c2ccco2)c(C(N)=O)c1C",
    "IC50": "inactive"
  },
  {
    "Compound": "Cc1ccc(NC(=O)c2c(NC(=O)C(F)(F)F)sc(-c3ccccc3)c2C)c(C)c1",
    "IC50": "8.1 µM"
  },
  {
    "Compound": "O=C1c2ccccc2C(=O)c2c(NC3CCCCC3)ccc(Nc3ccc(S(=O)(=O)O)cc3)c21",
    "IC50": "inactive"
  },
  {
    "Compound": "COc1ccccc1NC(=O)c1c(NC(=O)Cc2ccccc2)sc2c1CCCCC2",
    "IC50": "0.26 µM"
  }
]

Exercise: IC50 lookup needed for Cc1ccc(C(=O)NC(=S)Nc2ccc(-c3nc4ccccc4s3)cc2)cc1[N+](=O)[O-] , thanks.
Key: 3.7 µM
